system: DU-145; assay: Cytotoxicity against human DU145 cells at 100 uM after 2 days by sulforhodamine B assay; format: functional; settings: DU-145, 48 h
Param threshold (70%) applies to inhibition at 100 µM; output T when value >= threshold, F when value < threshold.

Query: Could you tell me if the measured inhibition at 100 µM of O=C(Nn1c(-c2cccc([N+](=O)[O-])c2)nc2c(-c3ccc(Cl)cc3)n[nH]c2c1=O)c1ccccc1 reaches 70% or more?
Reply: T

Query: Please check the record CC(C)(C)c1ccc(C(=O)Nn2c(CCC3CCCC3)nc3c(-c4ccc(Cl)cc4)n[nH]c3c2=O)cc1 and state if its inhibition at 100 µM is at or above 70%.
Reply: F

Query: Would you say O=C(Nn1c(CCC2CCCC2)nc2c(-c3ccc(Cl)cc3)n[nH]c2c1=O)c1ccccc1 shows inhibition at 100 µM at minimum 70%?
Reply: T

Query: In plain terms: is recorded inhibition at 100 µM at least 70% for COc1cccc(-c2nc3c(-c4ccco4)n[nH]c3c(=O)n2NC(=O)c2cccnc2)c1 ?
Reply: F

Query: Check if inhibition at 100 µM >= 70% (inclusive). Item: Cc1cccc(C(=O)Nn2c(CC3CCCCC3)nc3c(-c4ccc(Cl)cc4)n[nH]c3c2=O)c1
Reply: T

Query: Does inhibition at 100 µM meet or surpass 70% for CCCCc1nc2c(-c3ccc(Cl)cc3)n[nH]c2c(=O)n1NC(=O)c1ccccc1 ?
Reply: T

Query: Given COc1cccc(-c2nc3c(-c4ccc(Cl)cc4)n[nH]c3c(=O)n2NC(=O)c2ccccc2)c1 , state whether its inhibition at 100 µM is at least 70%.
Reply: T

Query: Say whether CCCc1n[nH]c2c(=O)n(NC(=O)c3ccccc3)c(-c3cccc(OC)c3)nc12 shows inhibition at 100 µM of 70% or more.
Reply: F

Query: Answer whether inhibition at 100 µM of O=C(Nn1c(-c2cccc([N+](=O)[O-])c2)nc2c(-c3ccco3)n[nH]c2c1=O)c1ccccc1 is greater than or equal to 70%.
Reply: F

Query: Decide: inhibition at 100 µM of CC(C)(C)c1ccc(C(=O)Nn2c(CC3CCCCC3)nc3c(-c4ccc(Cl)cc4)n[nH]c3c2=O)cc1 >= 70%?
Reply: F

###

tested on: DU-145; test: Cytotoxicity against human DU145 cells at 100 uM after 2 days by sulforhodamine B assay; assay type: functional; conditions: DU-145, 48 h
Output Y for inhibition at 100 µM not less than 60%; output N otherwise.

Query: Given CCCc1nc2c(-c3ccc(Cl)cc3)n[nH]c2c(=O)n1NC(=O)c1ccccc1 , state whether its inhibition at 100 µM is at least 60%.
Reply: Y

Query: Tell me whether inhibition at 100 µM is at least 60% here: COc1cccc2c1C(=O)c1c(O)c3c(c(O)c1C2=O)C[C@@](O)(C(=O)CO)C[C@@H]3O[C@H]1C[C@H](N)[C@H](O)[C@H](C)O1 [DOXORUBICIN]
Reply: Y

Query: Check this compound for inhibition at 100 µM at or above 60%: O=C(Nn1c(-c2cccc([N+](=O)[O-])c2)nc2c(-c3cccs3)n[nH]c2c1=O)c1cccnc1
Reply: N

Query: Answer whether inhibition at 100 µM of O=C(Nn1c(-c2cccc([N+](=O)[O-])c2)nc2c(-c3cccc(Cl)c3)n[nH]c2c1=O)c1ccccc1 is greater than or equal to 60%.
Reply: Y

Query: Please check the record COc1cccc(-c2nc3c(-c4ccc(C5CCNCC5)cc4)n[nH]c3c(=O)n2NC(=O)c2ccncc2)c1 and state if its inhibition at 100 µM is at or above 60%.
Reply: N
